assayTarget: fTM, fluorescently labelled H14 foldamer TM
experimentalDetails: fluorescence polarisation; direct FP: S100 protein diluted in 50 nM labeled foldamer, 20 mM HEPES pH 7.5, 150 mM NaCl, 1 mM CaCl2, 0.5 mM TCEP, 0.01% Tween20; quadratic fit (ProFit); detection threshold Kd 1 mM
pKd: −log10 of the molar value.
endpoint: pKd

binder	endpointResult
S100A11 (natural protein) MAKISSPTETERCIESLIAVFQKYAGKDGYNYTLSKTEFLSFMNTELAAFTKNQKDPGVLDRMMKKLDTNSDGQLDFSEFLNLIGGLAMACHDSFLKAVPSQKRT	< 3.00
S100A5 (natural protein) METPLEKALTTMVTTFHKYSGREGSKLTLSRKELKELIKKELCLGEMKESSIDDLMKSLDKNSDQEIDFKEYSVFLTMLCMAYNDFFLEDNK	3.70
S100Z (natural protein) MPTQLEMAMDTMIRIFHRYSGKERKRFKLSKGELKLLLQRELTEFLSCQKETQLVDKIVQDLDANKDNEVDFNEFVVMVAALTVACNDYFVEQLKKKGK	< 3.00
S100A8 (natural protein) MLTELEKALNSIIDVYHKYSLIKGNFHAVYRDDLKKLLETECPQYIRKKGADVWFKELDINTDGAVNFQEFLILVIKMGVAAHKKSHEESHKE	< 3.00
